Tested on: cancer cells
Assay summary: Survival rate of cancer cells after test compound is added (flow cytometry, Annexin V-FITC/PI, clinical specimen)
Type: cell-based, patient
Condition parameters: Homo sapiens, 18 h, Gastrointestinal tumor; 10.0 μM; read-out: Survival rate (%) All cells (Stem cells and ordinary cells)
// assign 1 (yes) if viability at 10 µM falls strictly below 90%, else 0 (no) (ties count as 0 (no))

C=C1C(=O)O[C@@H]2[C@@H]3[C@@H](CCC34CC4)C3(CC[C@@H]12)CC3 : 0 (no)
CCOC(=O)[C@@H]1CCCN1C[C@@H]1C(=O)O[C@H]2[C@H]1CCC1(CC1)[C@@H]1CCC3(CC3)[C@H]21 : 1 (yes)

Please find the next compound below.
Take the compound C=C1C(=O)O[C@@H]2[C@H]3C(C)=CC[C@@]34O[C@@]4(C)CC[C@@H]12 and say whether its viability at 10 µM is less than 90%. 1 (yes)

* * *

Tested on: cancer stem cells
Assay summary: Survival rate of cancer stem cells after test compound is added (flow cytometry, Annexin V-FITC/PI, clinical specimen)
Format: cell-based, patient
Condition parameters: Homo sapiens, 18 h, AML; 10.0 μM
Metric name: viability at 10 µM (%)
Give your result in % as a bare value.

Here are 6 molecules together with their reported answers.
C=C1C(=O)O[C@H]2[C@H]1CC[C@@](C)(OC)C1CC[C@@](C)(O)[C@@H]12 (stereo partly shown) [Compound 47] : 79
C=C1C(=O)O[C@@H]2[C@H]3C(C)=CC[C@@]34O[C@@]4(C)CC[C@@H]12 [Compound 50] : 45
C=C1CC[C@H]2C(=C)CC[C@H]3C(=C)C(=O)O[C@@H]3[C@@H]12 [Compound 25] : 35
CCOC(=O)[C@@H]1CCCN1C[C@@H]1C(=O)O[C@H]2[C@H]1CCC1(CC1)[C@@H]1CCC3(CC3)[C@H]21 [Compound 29] : 84
C=C1C(=O)O[C@@H]2[C@@H]3[C@@H](CC[C@@]3(C)O)C(=C)CC[C@@H]12 [Compound 48] : 47
[2H][C@@]1(CN(C)C)C(=O)O[C@@H]2[C@@H]3[C@@H](CCC34CC4)C3(CC[C@H]21)CC3 [Compound 46] : 82

We next turn to a different molecule, shown below.
Which viability at 10 µM is listed for CC1=C2CC[C@@](C)(O)[C@@H]2[C@H]2OC(=O)[C@@H](CN(C)C)[C@@H]2CC1 [Compound 23] ? 85

* * *

Test system: cancer stem cells
Assay summary: Survival rate of cancer stem cells after test compound is added (flow cytometry, Annexin V-FITC/PI, clinical specimen)
Format: cell-based, patient
Condition parameters: Homo sapiens, 18 h, Breast cancer; 20.0 μM
Metric name: viability at 20 µM
// unit must come after the numeric part

CC1=C2CC[C@@](C)(O)[C@@H]2[C@H]2OC(=O)[C@@H](CN(C)C)[C@@H]2CC1 : 74%
C=C1C(=O)O[C@@H]2[C@H]3C(C)=CC[C@@]34O[C@@]4(C)CC[C@@H]12 : 52%
C=C1CC[C@H]2C(=C)CC[C@H]3C(=C)C(=O)O[C@@H]3[C@@H]12 : 52%

Shifting focus to the molecule that follows.
If you can, please state the reported viability at 20 µM value of C=C1C(=O)O[C@H]2[C@H]1CC[C@@](C)(OC)C1CC[C@@](C)(O)[C@@H]12 (stereo partly drawn) . 73%

* * *

System: PGE2 secreted by synoviocyte
Assay summary: Content of PGE2 in culture supernatant of synoviocyte of RA model rats given test compound
Format: in vivo
Condition parameters: rat RA model, dose 30 mg/kg.2d; normal control 8.34 ± 1.29, NaCl 32.44 ± 10.32
Metric name: Content of PGE2 in culture supernatant of synoviocyte (x ± s)
Write the numeric value and follow it with the unit.

Param item = CC1CCN(C[C@@H]2C(=O)O[C@@H]3C4C(CCC45CC5)C4(CC[C@@H]23)CC4)CC1 (some centres unmarked) ; retrieve measured Content of PGE2 in culture supernatant of synoviocyte (x ± s). 25.64 ± 2.14 ng/mL

Could you tell me which Content of PGE2 in culture supernatant of synoviocyte (x ± s) is on file for O=C1O[C@H]2[C@@H](CCC3(CC3)[C@@H]3CCC4(CC4)[C@H]23)[C@@H]1CN1CCCC1 ? 28.35 ± 2.15 ng/mL

// query Content of PGE2 in culture supernatant of synoviocyte (x ± s) value for entry O=C1O[C@H]2[C@@H](CCC3(CC3)[C@@H]3CCC4(CC4)[C@H]23)[C@@H]1Cn1cc(-c2ccccc2)nn1 24.64 ± 3.95 ng/mL

Quick check: Content of PGE2 in culture supernatant of synoviocyte (x ± s) of C=C1C(=O)OC2C1CCC(C)=C1CCC(C)(OC(=O)C(Cl)Cl)C12 (centres unmarked) ? 25.67 ± 7.12 ng/mL

Recorded Content of PGE2 in culture supernatant of synoviocyte (x ± s) of C=C1C(=O)OC2C1CCC(C)=C1CCC(C)(OC(=O)CCCCBr)C12 (centres unmarked) , please. 24.59 ± 2.35 ng/mL

* * *

Tested on: cancer stem cells
Assay summary: Survival rate of cancer stem cells after test compound is added (flow cytometry, Annexin V-FITC/PI, clinical specimen)
Format: cell-based, patient
Condition parameters: Homo sapiens, 18 h, AML; 20.0 μM
Metric name: viability at 20 µM (%)
Report as a plain number; the unit % is understood.

Answered cases to consult:
C=C1C(=O)O[C@@H]2[C@@H]3[C@@H](CCC34CC4)C3(CC[C@@H]12)CC3 : 73
C=C1C(=O)O[C@H]2[C@H]1CC[C@@](C)(OC)C1CC[C@@](C)(O)[C@@H]12 (stereo partly shown) : 73
CCOC(=O)[C@@H]1CCCN1C[C@@H]1C(=O)O[C@H]2[C@H]1CCC1(CC1)[C@@H]1CCC3(CC3)[C@H]21 : 78

# evaluate next
Requested read-out: viability at 20 µM. Entry: C=C1C(=O)O[C@@H]2[C@@H]3[C@@H](CC[C@@]3(C)O)[C@](C)(O)CC[C@@H]12 77

* * *

Test system: cancer stem cells
Assay summary: Survival rate of cancer stem cells after test compound is added (flow cytometry, Annexin V-FITC/PI, clinical specimen)
Format: cell-based, patient
Condition parameters: Homo sapiens, 18 h, Ovarian cancer; 20.0 μM
Metric name: viability at 20 µM (%)
The answer is to be given in %; state only the numeric part.

# query: viability at 20 µM of entry CCOC(=O)[C@@H]1CCCN1C[C@@H]1C(=O)O[C@H]2[C@H]1CCC1(CC1)[C@@H]1CCC3(CC3)[C@H]21 81

Look up viability at 20 µM for this compound: C=C1C(=O)O[C@@H]2[C@@H]3[C@@H](CC[C@@]3(C)O)C(=C)CC[C@@H]12 45

Name the recorded viability at 20 µM for C=C1C(=O)O[C@@H]2[C@@H]3[C@@H](CCC34CC4)C3(CC[C@@H]12)CC3 . 75

* * *

Entries annotated with measured viability at 10 µM
Tested on: cancer cells
Assay summary: Survival rate of cancer cells after test compound is added (flow cytometry, Annexin V-FITC/PI, clinical specimen)
Type: cell-based, patient
Condition parameters: Homo sapiens, 18 h, Colon adenocarcinoma; 10.0 μM; read-out: Survival rate (%) All cells (Stem cells and ordinary cells)
Only the number, expressed in %, is required.

Any idea what its viability at 10 µM is? The compound is C=C1CC[C@H]2C(=C)CC[C@H]3C(=C)C(=O)O[C@@H]3[C@@H]12 55

Using the record for C=C1C(=O)O[C@H]2[C@H]1CC[C@]1(C)O[C@@]13CC[C@@](C)(O)[C@H]23 , report its viability at 10 µM. 66

I would be grateful if you could share the reported viability at 10 µM for C=C1C(=O)O[C@H]2[C@H]1CC[C@@](C)(OC)C1CC[C@@](C)(O)[C@@H]12 (stereo partly drawn) . 91

# lookup: viability at 10 µM of C=C1C(=O)O[C@@H]2[C@@H]3[C@@H](CC[C@@]3(C)O)C(=C)CC[C@@H]12 66

# viability at 10 µM lookup, item C=C1C(=O)O[C@@H]2[C@H]3C(C)=CC[C@@]34O[C@@]4(C)CC[C@@H]12 55

Given the compound C=C1C(=O)O[C@@H]2[C@@H]3[C@@H](CC[C@@]3(C)O)[C@](C)(O)CC[C@@H]12 , what is its reported viability at 10 µM? 93

May I ask what viability at 10 µM has been recorded for [2H][C@@]1(CN(C)C)C(=O)O[C@@H]2[C@@H]3[C@@H](CCC34CC4)C3(CC[C@H]21)CC3 ? 89

* * *

Test system: cancer stem cells
Assay summary: Survival rate of cancer stem cells after test compound is added (flow cytometry, Annexin V-FITC/PI, clinical specimen)
Assay type: cell-based, patient
Condition parameters: Homo sapiens, 18 h, Gastrointestinal tumor; 20.0 μM
From the text: […]
Metric name: viability at 20 µM (%)
Just the number please, in %, no unit attached.

Before answering, review these 5 worked examples.
[2H][C@@]1(CN(C)C)C(=O)O[C@@H]2[C@@H]3[C@@H](CCC34CC4)C3(CC[C@H]21)CC3 : 76
CC1=C2CC[C@@](C)(O)[C@@H]2[C@H]2OC(=O)[C@@H](CN(C)C)[C@@H]2CC1 : 82
C=C1C(=O)O[C@@H]2[C@@H]3[C@@H](CC[C@@]3(C)O)C(=C)CC[C@@H]12 : 52
CCOC(=O)[C@@H]1CCCN1C[C@@H]1C(=O)O[C@H]2[C@H]1CCC1(CC1)[C@@H]1CCC3(CC3)[C@H]21 : 75
CN(C)C[C@@H]1C(=O)O[C@H]2[C@H]1CCC1(CC1)[C@@H]1CCC3(CC3)[C@H]21 : 77

# input for lookup
Can you share its viability at 20 µM? I mean this compound: C=C1C(=O)O[C@@H]2[C@@H]3[C@@H](CCC34CC4)C3(CC[C@@H]12)CC3 82
